We begin with a simple list: items and their reported 2A/2B EC50 Selectivity.
- SYSTEM NAME: UniProt P28223
- METHOD DESCRIPTION: 5-HT2A functional assay, IP1 (IPOne)
- Format: cell-based
- CONDITION: IP1 assay

Item COc1cc(SC(F)F)c(OC)cc1CCN [Compound I-8] has what recorded 2A/2B EC50 Selectivity?
12.8

Item COc1cc(C(C)(C)C)c(OC)cc1CCN [VI-1] has what recorded 2A/2B EC50 Selectivity?
6

---

- SYSTEM NAME: 5-HT2A receptor (Homo sapiens (Human))
- METHOD DESCRIPTION: 5-HT2A radioligand competition binding ([3H]LSD or [3H]ketanserin)
We begin with a simple list: items and their reported pKi.
Hey, just a heads up that pKi is the negative log base 10 of the concentration in molar.

Recorded pKi for [2H]C([2H])([2H])C(c1cc(OC)c(CCN)cc1OC)(C([2H])([2H])[2H])C([2H])([2H])[2H] with 5-HT2A receptor (Homo sapiens (Human)), please?
8.00

***
Recorded pKi for COc1cc(SC(F)(F)F)c(OC)cc1CCN with 5-HT2A receptor (Homo sapiens (Human)), please?
7.27

---

- METHOD DESCRIPTION: PK profile in C57BL/6J mice (plasma, brain)
- Type: in vivo, mouse
- CONDITION: male, C57BL/6J, mouse, brain/plasma, po; p.o. 3 mg/kg; read-out: Brain/Plasma ratio (AUCINF)
MEASURE: Kp

Item COc1cc(SC(F)(F)F)c(OC)cc1CCN has what recorded Kp?
25.8

---

- METHOD DESCRIPTION: Plasma and brain concentrations after dosing in mice (screening)
- Format: in vivo, mouse
- CONDITION: mouse, plasma, sc; mice, 3 mg/kg s.c.; read-out: Plasma, 15 min
MEASURE: concentration at 15 min (nM)
Write the number in nM without appending the unit.

Item COc1cc(SCC(F)(F)C(F)F)c(OC)cc1CCN [Compound I-10] has what recorded concentration at 15 min?
900

Item COc1cc(SCCC(F)F)c(OC)cc1CCN [Compound I-3] has what recorded concentration at 15 min?
700

Item COc1cc(SC(F)F)c(OC)cc1CCN [Compound I-8] has what recorded concentration at 15 min?
300

Please look at the following compound next.
Item COc1cc(C(C)(C)C)c(OC)cc1CCN [VI-1] has what recorded concentration at 15 min?
250

---

- METHOD DESCRIPTION: Plasma and brain concentrations after dosing in mice (screening)
- Format: in vivo, mouse
- CONDITION: mouse, brain, sc; mice, 3 mg/kg s.c.; read-out: Brain, 160 min
Threshold-based label: concentration at 160 min under 2 µM gives True, concentration at 160 min not under 2 µM gives False.

Lab log: compare recorded concentration at 160 min with 2 µM; is it strictly lower for COc1cc(SCC(F)(F)C(F)F)c(OC)cc1CCN ?
True

Lab log: compare recorded concentration at 160 min with 2 µM; is it strictly lower for [2H]C([2H])([2H])Oc1cc(SC(F)(F)F)c(OC([2H])([2H])[2H])cc1CCN ?
False

Lab log: compare recorded concentration at 160 min with 2 µM; is it strictly lower for COc1cc(SC(F)F)c(OC)cc1CCN ?
False

Lab log: compare recorded concentration at 160 min with 2 µM; is it strictly lower for COc1cc(SC(F)(F)F)c(OC)cc1CCN ?
False

Lab log: compare recorded concentration at 160 min with 2 µM; is it strictly lower for COc1cc(SCCC(F)F)c(OC)cc1CCN ?
True

Now examine the next entry.
Lab log: compare recorded concentration at 160 min with 2 µM; is it strictly lower for COc1cc(C(C)(C)C)c(OC)cc1CCN ?
False
